# SYSTEM: Hsp90 in C. albicans (SC5314) lysate (Candida albicans, UniProt P46598)
# Construct: endogenous in cells; host or cells: C. albicans SC5314 whole-cell lysate
# Sequence (P46598 whole entry): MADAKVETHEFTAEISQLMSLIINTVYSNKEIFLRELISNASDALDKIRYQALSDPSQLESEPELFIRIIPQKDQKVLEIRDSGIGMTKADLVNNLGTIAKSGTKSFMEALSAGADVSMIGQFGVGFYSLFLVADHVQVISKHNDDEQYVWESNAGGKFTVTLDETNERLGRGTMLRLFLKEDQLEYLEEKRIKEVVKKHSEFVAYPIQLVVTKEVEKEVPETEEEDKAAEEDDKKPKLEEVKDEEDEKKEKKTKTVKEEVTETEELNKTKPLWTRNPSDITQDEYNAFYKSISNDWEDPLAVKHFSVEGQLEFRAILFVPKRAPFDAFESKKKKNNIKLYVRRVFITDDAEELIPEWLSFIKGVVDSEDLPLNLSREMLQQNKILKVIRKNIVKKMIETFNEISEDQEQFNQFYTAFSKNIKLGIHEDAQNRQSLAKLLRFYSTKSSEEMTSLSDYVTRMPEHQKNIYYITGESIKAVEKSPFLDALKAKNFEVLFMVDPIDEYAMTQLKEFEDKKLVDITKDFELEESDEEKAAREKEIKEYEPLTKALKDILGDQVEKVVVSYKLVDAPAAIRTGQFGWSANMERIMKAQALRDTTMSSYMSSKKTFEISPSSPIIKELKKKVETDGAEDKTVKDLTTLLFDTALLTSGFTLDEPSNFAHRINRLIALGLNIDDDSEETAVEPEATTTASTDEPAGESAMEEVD
# EXPERIMENT DESCRIPTION: biochemical
# Format: binding
# EXPERIMENTAL PARAMETERS: SC5314 lysate, 37.037 nM compound, raw
EXPERIMENTAL READOUT: FP signal

COc1ccc(CON=C2C=CC=CC3OC3CC(C)OC(=O)c3c(O)cc(O)c(Cl)c3C2)cc1 (mixture of isomers) :: 198
COc1ccccc1CON=C1C=CC=CC2OC2CC(C)OC(=O)c2c(O)cc(O)c(Cl)c2C1 (mixture of isomers) :: 190
COc1ccc(CON=C2C=CC=CC3OC3CC(C)OC(=O)c3c(O)cc(O)cc3C2)cc1 (stereo not shown) :: 196
C[C@@H]1C[C@@H]2O[C@@H]2/C=C\C=C\C(=NOCc2ccccc2Cl)Cc2c(Cl)c(O)cc(O)c2C(=O)O1 :: 199

----------
# SYSTEM: Hsp90 in C. albicans (SC5314) lysate (Candida albicans)
# Construct: endogenous in cells; host or cells: C. albicans SC5314 whole-cell lysate
# EXPERIMENT DESCRIPTION: biochemical
# Type: binding
# EXPERIMENTAL PARAMETERS: SC5314 lysate, 1000 nM compound
EXPERIMENTAL READOUT: FP signal relative to 0 nM

COc1ccccc1CON=C1C=CC=CC2OC2CC(C)OC(=O)c2c(O)cc(O)c(Cl)c2C1 (mixture of isomers) [compound 226] :: 0.2794
CC1CC2OC2C=CC=CC(=NOCc2ccccc2)Cc2c(Cl)c(O)cc(O)c2C(=O)O1 (mixture of isomers) [compound 217] :: 0.201
Cc1ccc(CON=C2C=CC=CC3OC3CC(C)OC(=O)c3c(O)cc(O)c(Cl)c3C2)cc1 (mixture of isomers) [compound 218] :: 0.5243

----------
# SYSTEM: Hsp90 in C. albicans (SC5314) lysate (Candida albicans, UniProt P46598)
# Construct: endogenous in cells; host or cells: C. albicans SC5314 whole-cell lysate
# EXPERIMENT DESCRIPTION: biochemical
# Type: binding
# EXPERIMENTAL PARAMETERS: SC5314 lysate, 111.111 nM compound
FP signal relative to 0 nM overview
EXPERIMENTAL READOUT: FP signal relative to 0 nM

CC1CC2OC2C=CC=CC(=NOCc2cccc(F)c2)Cc2c(Cl)c(O)cc(O)c2C(=O)O1 (mixture of isomers) [compound 227] :: 0.806
CC1CC2OC2C=CC=CC(=NOCc2ccccc2)Cc2c(Cl)c(O)cc(O)c2C(=O)O1 (mixture of isomers) [compound 217] :: 0.8756
COc1ccc(CON=C2C=CC=CC3OC3CC(C)OC(=O)c3c(O)cc(O)cc3C2)cc1 (stereo not shown) [CMLD013075] :: 0.8835
C[C@@H]1C[C@@H]2O[C@@H]2/C=C\C=C\C(=NOCc2ccccc2Cl)Cc2c(Cl)c(O)cc(O)c2C(=O)O1 [compound 4] :: 0.8942
